The values you see were collected from patent US10758534B2.

# tgt: F508del (Homo sapiens, UniProt P13569, DEL508-508)
# Construct: expressed in transfected cells
# Sequence (P13569 with tags, fused parts or gaps DEL508-508): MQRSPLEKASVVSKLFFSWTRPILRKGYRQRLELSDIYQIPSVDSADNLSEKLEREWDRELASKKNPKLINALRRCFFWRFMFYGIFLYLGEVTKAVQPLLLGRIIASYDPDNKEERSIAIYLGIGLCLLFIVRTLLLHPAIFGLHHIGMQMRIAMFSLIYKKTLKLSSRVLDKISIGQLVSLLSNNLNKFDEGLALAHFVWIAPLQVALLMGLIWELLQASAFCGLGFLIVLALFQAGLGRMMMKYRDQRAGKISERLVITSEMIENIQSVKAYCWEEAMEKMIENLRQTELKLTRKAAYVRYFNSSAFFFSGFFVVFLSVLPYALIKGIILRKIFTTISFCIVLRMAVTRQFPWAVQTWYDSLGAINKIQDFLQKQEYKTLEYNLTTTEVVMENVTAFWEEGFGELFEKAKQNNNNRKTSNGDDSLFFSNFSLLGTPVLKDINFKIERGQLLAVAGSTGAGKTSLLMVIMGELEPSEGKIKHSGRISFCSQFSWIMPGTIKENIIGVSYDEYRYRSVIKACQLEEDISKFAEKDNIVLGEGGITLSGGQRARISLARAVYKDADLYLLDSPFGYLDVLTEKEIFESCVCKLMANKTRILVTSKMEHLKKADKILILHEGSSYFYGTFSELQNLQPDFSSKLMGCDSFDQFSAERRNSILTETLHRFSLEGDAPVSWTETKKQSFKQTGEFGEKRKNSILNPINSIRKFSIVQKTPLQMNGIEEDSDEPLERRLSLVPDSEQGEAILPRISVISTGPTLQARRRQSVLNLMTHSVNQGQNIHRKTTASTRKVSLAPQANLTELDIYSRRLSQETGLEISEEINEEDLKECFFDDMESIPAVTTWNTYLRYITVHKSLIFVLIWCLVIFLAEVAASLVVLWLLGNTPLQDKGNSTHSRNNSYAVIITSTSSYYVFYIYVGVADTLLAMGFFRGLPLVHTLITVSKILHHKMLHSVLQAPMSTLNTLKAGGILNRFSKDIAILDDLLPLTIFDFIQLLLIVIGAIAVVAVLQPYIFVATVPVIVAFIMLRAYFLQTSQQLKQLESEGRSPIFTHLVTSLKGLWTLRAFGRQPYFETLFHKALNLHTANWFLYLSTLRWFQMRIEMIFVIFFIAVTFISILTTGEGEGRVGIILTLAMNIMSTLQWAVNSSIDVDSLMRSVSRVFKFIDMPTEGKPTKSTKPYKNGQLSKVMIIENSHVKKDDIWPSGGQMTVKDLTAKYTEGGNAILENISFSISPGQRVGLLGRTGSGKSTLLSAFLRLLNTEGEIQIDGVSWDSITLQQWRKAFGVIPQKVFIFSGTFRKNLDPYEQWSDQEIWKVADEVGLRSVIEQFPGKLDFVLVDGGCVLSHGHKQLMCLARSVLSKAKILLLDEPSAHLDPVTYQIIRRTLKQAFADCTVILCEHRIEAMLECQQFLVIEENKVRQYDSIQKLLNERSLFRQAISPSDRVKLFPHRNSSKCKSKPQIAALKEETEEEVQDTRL
# experiment.description: Protocol 2: FRET membrane potential optical assay (VIPR), identification of correction compounds
# Format: cell-based
# cond: Table 3; compounds of Table 1 as modulators of CFTR activity; protocol not stated
test.readout: EC30

INSERT INTO assay_data (smiles_data, tgt, test_readout, endpoint_result) VALUES
  ('Cc1cc(C)c(CN2Cc3ccccc3[C@H]2C(=O)NS(=O)(=O)c2cccc(N)c2)c(C)c1', 'F508del (Homo sapiens, UniProt P13569, DEL508-508)', 'EC30', '+++ (“+++” means <3 uM)'),
  ('Cc1cc(C)c(Oc2nc(C(C)(C)C)ccc2C(=O)NS(=O)(=O)c2cccc(N)c2)c(C#N)c1', 'F508del (Homo sapiens, UniProt P13569, DEL508-508)', 'EC30', '+++ (“+++” means <3 uM)'),
  ('CC(C)COc1cc(F)cc(-c2ccc(C(=O)NS(=O)(=O)c3cccc(N)n3)c(N3CCCCCC3)n2)c1', 'F508del (Homo sapiens, UniProt P13569, DEL508-508)', 'EC30', '+++ (“+++” means <3 uM)');

###

# tgt: F508del (Homo sapiens, UniProt P13569, DEL508-508)
# Construct: expressed in transfected cells
# experiment.description: Protocol 1: membrane potential optical assay (FLIPR III, voltage sensing dye), identification of potentiator compounds
# Format: cell-based
# cond: Table 3, compounds of Table 1
test.readout: EC30

INSERT INTO measurements (molecule, endpoint_result) VALUES
  ('CC(C)COc1cc(F)cc(-c2nc(N3C[C@@H](C)CC3(C)C)ccc2C(=O)NS(=O)(=O)c2cccc(N)n2)c1 [Compound 1409]', '+++ (“+++” means <3 uM)'),
  ('CC1CN(c2ncccc2C(=O)NS(=O)(=O)c2cccc(Nc3ccc(N(C)C)cc3)n2)C(C)(C)C1 (stereo not shown) [Compound 1757]', '+++ (“+++” means <3 uM)'),
  ('CCC1(CC)CCCN(c2nc(-c3ccc(OC(C)C)nc3)ccc2C(=O)NS(=O)(=O)c2cccc(N)n2)C1 [Compound 971]', '+++ (“+++” means <3 uM)'),
  ('CC(C)Oc1ccc(-c2ccc(C(=O)NS(=O)(=O)c3cccc(N)n3)c(N3C(C)CCC3(C)C)n2)cn1 (stereo not shown) [Compound 1040]', '+++ (“+++” means <3 uM)'),
  ('CC(=O)NC1CCCN(S(=O)(=O)NC(=O)c2ccc(-c3cc(F)cc(OCC(C)C)c3)nc2N2CC(C)CC2(C)C)C1 (stereo not shown) [Compound 1586]', '+++ (“+++” means <3 uM)');

Query molecule follows.
Lookup: Can you look up the measured EC30 of CC1CN(c2ncccc2C(=O)NS(=O)(=O)c2cccc(Oc3ccc(F)c(Cl)c3)n2)C(C)(C)C1 (stereo not shown) [Compound 1831] for me?
Found: +++ (“+++” means <3 uM)

###

# tgt: F508del (Homo sapiens, UniProt P13569, DEL508-508)
# Construct: expressed in transfected cells
# experiment.description: Protocol 1: membrane potential optical assay (FLIPR III, voltage sensing dye), identification of potentiator compounds
# Type: cell-based
# cond: Table 3, compounds of Table 1
test.readout: EC30

INSERT INTO measurements (compound, endpoint_result) VALUES
  ('CC(C)COc1ccccc1-c1cnc(N2CC(C)CC2(C)C)c(C(=O)NS(=O)(=O)c2cccc(N)n2)c1 (stereo not shown)', '+++ (“+++” means <3 uM)'),
  ('C[C@@H]1CN(c2nc(C3=CCCCO3)ccc2C(=O)NS(=O)(=O)c2cccnc2N)C(C)(C)C1', '+++ (“+++” means <3 uM)'),
  ('CC(C)Oc1ccc(-c2ccc(C(=O)NS(=O)(=O)c3cccc(N)n3)c(N3CCC(OCc4ccccc4)CC3)n2)cn1', '+++ (“+++” means <3 uM)');

###

Property: EC30; scope: individual compounds
# tgt: F508del (Homo sapiens, UniProt P13569, DEL508-508)
# Construct: expressed in transfected cells
# experiment.description: Protocol 2: FRET membrane potential optical assay (VIPR), identification of correction compounds
# Assay type: cell-based
# cond: F508del CFTR modulator activity; compounds of Table 1; read-out: EC30

The examples below pair each entry with its known result.
INSERT INTO measurements (compound, test_readout, endpoint_result) VALUES
  ('C[C@@H]1CN(c2nc(-c3cccc4[nH]ccc34)ccc2C(=O)NS(=O)(=O)c2ccc[nH]c2=O)C(C)(C)C1', 'EC30', '> 10 µM'),
  ('C[C@@H]1CN(c2nc(O[C@H]3CCOC3)c(F)cc2C(=O)NS(=O)(=O)c2cccc(N)n2)C(C)(C)C1', 'EC30', '3 to 10 µM'),
  ('CC(C)Oc1cnn(-c2ccc(C(=O)NS(=O)(=O)c3cccc(N)n3)c(N3C[C@@H](C)CC3(C)C)n2)c1', 'EC30', '3 to 10 µM'),
  ('CC1CN(c2ncccc2C(=O)NS(=O)(=O)c2cccc(O[C@H]3CCN(Cc4ccccc4)C3)n2)C(C)(C)C1 (stereo partly shown)', 'EC30', '3 to 10 µM'),
  ('C[C@@H]1CN(c2nc(-c3cc(F)cc(F)c3)ccc2C(=O)NS(=O)(=O)c2cccnc2N)C(C)(C)C1', 'EC30', '< 3 µM'),
  ('CC1CN(c2ncccc2C(=O)NS(=O)(=O)c2cccc(OCC3(C)CC3)n2)C(C)(C)C1 (stereo not shown)', 'EC30', '< 3 µM');

Query compound follows.
Lookup: Can you look up the measured EC30 of CC1CN(c2ncccc2C(=O)NS(=O)(=O)c2cccc(Oc3ccc(-n4ccnc4)cc3)n2)C(C)(C)C1 (stereo not shown) for me?
Found: 3 to 10 µM

###

Property: EC30; scope: individual compounds
# tgt: F508del (Homo sapiens, UniProt P13569, DEL508-508)
# Construct: expressed in transfected cells
# experiment.description: Protocol 2: FRET membrane potential optical assay (VIPR), identification of correction compounds
# Assay type: cell-based
# cond: F508del CFTR modulator activity; compounds of Table 1; read-out: EC30

INSERT INTO results (compound, endpoint_result) VALUES
  ('COc1c(F)cc(-c2ccc(C(=O)NS(=O)(=O)c3cccnc3N)c(N3C[C@@H](C)CC3(C)C)n2)cc1F', '< 3000 nM'),
  ('CC1CN(c2ncccc2C(=O)NS(=O)(=O)c2cccc(OCC3CCOC3)n2)C(C)(C)C1 (stereo not shown)', '3000 to 10000 nM'),
  ('Cc1cc(O)cc(-c2ccc(C(=O)NS(=O)(=O)c3cccc(N)n3)c(N3C[C@@H](C)CC3(C)C)n2)c1', '3000 to 10000 nM');

Lookup: F508del (Homo sapiens, UniProt P13569, DEL508-508) / EC30 / C[C@@H]1CN(c2nc(C3CC(C)(C)CCC3O)ccc2C(=O)NS(=O)(=O)c2cccnc2N)C(C)(C)C1 (stereo partly shown) : value?
Found: 3000 to 10000 nM

###

# tgt: F508del (Homo sapiens, UniProt P13569, DEL508-508)
# Construct: expressed in transfected cells
# experiment.description: Protocol 2: FRET membrane potential optical assay (VIPR), identification of correction compounds
# Assay type: cell-based
# cond: F508del CFTR modulator activity; compounds of Table 1; read-out: EC30
Property: EC30; scope: individual molecules

INSERT INTO results (molecule, endpoint_result) VALUES
  ('CC(=O)Nc1cccc(Oc2cccc(S(=O)(=O)NC(=O)c3cccnc3N3CC(C)CC3(C)C)n2)c1 (stereo not shown)', '3000 to 10000 nM'),
  ('CCCOc1ccc(-c2cnc(N3CC(C)CC3(C)C)c(C(=O)NS(=O)(=O)c3cccc(N)n3)c2)cc1C (stereo not shown)', '< 3000 nM'),
  ('Cc1c(F)cccc1-c1ccc(C(=O)NS(=O)(=O)N2CC[C@H](N)C2)c(N2C[C@@H](C)CC2(C)C)n1', '3000 to 10000 nM');

Lookup: F508del (Homo sapiens, UniProt P13569, DEL508-508) / EC30 / CC1CN(c2ncccc2C(=O)NS(=O)(=O)c2cccc(N[C@H](C)C3CCCCC3)n2)C(C)(C)C1 (stereo partly shown) : value?
Found: < 3000 nM

Lookup: Please answer likewise for Cc1cc(-c2ccc(C(=O)NS(=O)(=O)c3cccc(N)n3)c(N3C[C@@H](C)CC3(C)C)n2)cnc1N(C)C(C)C
Found: < 3000 nM

Lookup: Please answer likewise for Cc1cc(C)cc(-c2ccc(C(=O)NS(=O)(=O)c3ccc[nH]c3=O)c(N3C[C@@H](C)CC3(C)C)n2)c1
Found: < 3000 nM

Lookup: Please answer likewise for Cc1nc(-c2cccc(Oc3cccc(S(=O)(=O)NC(=O)c4cccnc4N4CC(C)CC4(C)C)n3)c2)no1 (stereo not shown)
Found: < 3000 nM
